Kindly state melting point for each of the entries shown.

- O=C(O)Cc1nc(C(=O)c2ccccc2)no1: 143 to 144 °C
- Clc1ccc(C(=C2SCCCS2)C2CC2)cc1: 91 to 95 °C
- Cc1c(C(=O)Nc2ccc(N3CCC(N4CCOCC4)CC3)c(Cl)c2)cnn1-c1ccc(Cl)cc1: 238 to 240 °C
- CCCCCCCCCCCCCCC(CCCCCCCCCCCCCC)C(=O)O: 73.5 to 75 °C

Turning now to a further molecule:
Q: Param item = O=C(O)c1cnc(N2CCC(NS(=O)(=O)c3ccc4ccccc4c3)CC2)nc1 ; retrieve measured melting point.
Ans: > 260 °C
